Consider the following compounds and their measured activity change, negative = inhibition readings.
Assay: qHTS Assay for inhibitors of the human cytomegalovirus (HCMV); note: % is set by controls: 0 for no effect and ±100 for the full control effect
Settings: HFF cells, HCMV-luciferase reporter, 72 h; at 57.5 µM; active compounds read low
Hit rate of the full screen: of about 410,000 compounds, about 18,000 (4.4%) were called active. Roughly 7% stayed inconclusive and do not appear here. This excerpt belongs to a sample that is enriched for actives.
Report the figure in % without appending any unit label.

Consider the worked cases shown below.
Item O=C(CSc1nc(=O)[nH]c2c1CCCC2)Nc1cc(C(F)(F)F)ccc1Cl has what recorded activity change, negative = inhibition?
-20.6

Same thing, different compound: O=C(C1CC1)N1N=C(c2ccc(Br)cc2)CC1(O)C(F)(F)F (stereo not given)
10

Same thing, different compound: CCCCCCc1cc2cc(-c3nnc(-c4ccccc4)o3)c(=O)oc2cc1O
-100

Same thing, different compound: COc1ccc2[nH]c3c(C)c4cc[n+](C)cc4c(C)c3c2c1
-97.6

Continuing:
Item O=C1NCC(Nc2ccccc2)C(=O)N1 (stereo not given) has what recorded activity change, negative = inhibition?
-7.88

Same thing, different compound: O=c1c2ccccc2nc(/C=C/c2ccco2)n1-c1ccccc1O
-24

Same thing, different compound: Cc1ccc(N2CC(NC(=O)Cc3cccs3)CC2=O)cc1 (stereo not given)
76

Same thing, different compound: CC1CCN(S(=O)(=O)c2ccc3c(c2)N(CC(=O)NCc2ccccc2Cl)C(=O)CO3)CC1
15.7

Same thing, different compound: CCOc1ccc(NS(=O)(=O)c2ccc(N)cc2)nn1
-10.2

Same thing, different compound: COc1cc(CN(C(=O)c2ccccc2Br)c2ccccn2)cc(OC)c1OC
-1.41

Same thing, different compound: Cc1cc(NC(=O)/C=C/C(=O)N(c2ccccc2C)C(C(=O)NC2CCCC2)c2ccc(F)cc2)no1 (stereo not given)
-73.5

Same thing, different compound: O=c1c2ccccc2nc(/C=C/c2ccc(F)cc2)n1-c1ccccc1O
-99.8

Same thing, different compound: O=C(c1ccc(Cl)cc1)N1N=C(c2ccccn2)CC1(O)C(F)(F)F (stereo not given)
-98.8

Same thing, different compound: COc1ccc(S(=O)(=O)NCc2cccn2Cc2cccc(C)c2)cc1
-4.02

Same thing, different compound: COc1cc(OC)c(NC(=O)N2CC3CCCN3c3ccccc32)cc1Cl (stereo not given)
-10.2

====

Assay: qHTS Assay for inhibitors of the human cytomegalovirus (HCMV); note: % is set by controls: 0 for no effect and ±100 for the full control effect
Conditions: HFF cells, HCMV-luciferase reporter, 72 h; at 57.5 µM
Screen size: about 410,000 compounds; about 18,000 (4.4%) were called active. Roughly 7% stayed inconclusive and do not appear here. Cut-off read from the data, not from the text of the source: active = activity change below about -60%; inconclusive = no clear call, values can overlap the other calls; inactive = above about -39%. The sample as a whole holds a higher share of actives than the screen did.
Give your call using only these classes: active, inactive

Recorded results for 6 compounds are shown here.
Test call for this compound, please: COc1cc(C(C(=O)NC2CCCC2)N(Cc2ccccc2)C(=O)c2snc(C(N)=O)c2N)ccc1O (stereo unspecified)
active

Same thing, different compound: COc1ccc(N(C(=O)c2snc(C(N)=O)c2N)C(C(=O)NC2CCCC2)c2ccco2)cc1OC (stereo unspecified)
inactive

Same thing, different compound: COc1ccc(NC(=O)CSc2nc3ccccc3n2CC(=O)N2CCCCC2C)cc1 (stereo unspecified)
inactive

Same thing, different compound: COc1ccc(-c2cc(-c3ccccc3)nc3c2COc2ccc(Cl)cc2-3)cc1
inactive

Same thing, different compound: CC(C)[C@@H](C(=O)OCC(=O)c1ccc2c(c1)NC(=O)CO2)N1C(=O)c2ccccc2C1=O
inactive

Same thing, different compound: CCc1cnc2c(c1SCC(=O)N1CCC(C)CC1)c(=O)n(C)c(=O)n2C
inactive

Continuing:
Test call for this compound, please: COc1ccc(-c2cn3nc(N4CCC(C(=O)Nc5cccc(C)c5C)CC4)sc3n2)cc1
inactive

Same thing, different compound: Cc1cc(C)n(C(=O)c2ccc(C)c(S(=O)(=O)N3CCOCC3)c2)n1
inactive

Same thing, different compound: COc1ccc(C(=O)Nc2nc(-c3ccc(S(=O)(=O)N4CCOCC4)cc3)cs2)cc1
active

Same thing, different compound: COc1ccc(CC(=O)Nc2nc(-c3ccc(F)c(F)c3)cs2)cc1OC
active

Same thing, different compound: COC(=O)C1=C(C(=O)OC)[C@@H]2N(C)c3ccccc3[C@@]23C[C@@H](C(=O)OC)N(C(C)=O)C3=N1
inactive

Same thing, different compound: CCOC(=O)[C@]12CCC=C1N(CCC1=CCCCC1)C(=O)[C@H](CC(=O)NCc1ccc(C)o1)C2
inactive

Same thing, different compound: CCOc1cc(C(C(=O)NCC2CCCO2)N(C(=O)Cn2nnc3ccccc32)c2cccc(OC)c2)ccc1O (stereo unspecified)
inactive

Same thing, different compound: COc1ccccc1C(=O)Oc1ccc(N2C(=O)CCC2=O)cc1
inactive

Same thing, different compound: COc1cc(CC(=O)Nc2nc(-c3ccc(F)c(F)c3)cs2)cc(OC)c1OC
active
